The values you see were collected from PubChem BioAssay (NCI).

test system: PC-3 prostate; test: NCI tumour cell line growth inhibition, 48 h
TGI values by entry
READOUT TYPE: TGI

| MOLECULE | READOUT TYPE | VALUE OBSERVED |
| --- | --- | --- |
| CC[C@H](C)C(=O)O[C@H]1CCC=C2C=C[C@H](C)C(CCC3C[C@@H](O)CC(=O)O3)[C@H]21 (some centres not stated) | TGI | > 100 µM |
| O=c1c2c3c(sc2nc2n1N=CN(c1ccc(Cl)cc1)C2)CCCC3 | TGI | > 100 µM |
| COc1ccc(CCN(C)C(=O)CC(C#N)(c2ccccc2)c2ccc(OC)c(OC)c2)cc1OC (configuration not stated) | TGI | > 100 µM |
| C=C(Cl)C(Br)(CBr)CCC(Br)C(C)(C)Br (configuration not stated) | TGI | > 10 µM |
| CC(C)(O)[C@H]1[C@@H]2OC(=O)[C@H]1[C@]1(O)C[C@H]3OC34C(=O)O[C@H]2[C@@]41C (some centres not stated) (tested in a mixture with another compound) | TGI | > 100 µM |
| C/C(=C/CNc1ncnc2c1ncn2CCC#N)CO | TGI | > 100 µM |
| COC(=O)N/N=C(\C)C(CN1CCOCC1)C(c1ccccc1)c1cc2ccccc2oc1=O (configuration not stated) | TGI | > 100 µM |
| O=C(Nc1ccc(Br)c(Cl)c1)c1cc(F)ccc1O | TGI | > 14.8 µM |
| CC(C)(CCCCC(C)(C)NCC1COc2ccccc2O1)NCC1COc2ccccc2O1 (configuration not stated) | TGI | > 10 µM |
| C(/C=N/NC1=NCCCN1)=N\NC1=NCCCN1 | TGI | > 100 µM |
| COc1cc(/C=C2\N=C(c3ccccc3)N(/N=C/c3cc4cc(C)ccc4nc3Cl)C2=O)cc(OC)c1OC | TGI | 54.7 µM |
| Cc1ccccc1NC(=O)/C(C#N)=N\Nc1nc[nH]c1C(N)=O | TGI | > 100 µM |
| CSc1ccc(-c2cc(-c3nc4ccccc4[nH]3)nc3[nH]c(-c4nc5ccccc5[nH]4)cc(=O)c23)cc1 | TGI | > 100 µM |
| COc1ccc(F)cc1C(=O)c1cnc(NC2CCN(S(C)(=O)=O)CC2)nc1N | TGI | 18.1 µM |
| CCOC(=O)c1cc2ncccc2c2ccccc12 | TGI | > 100 µM |
| Cc1ccc(S(=O)(=O)n2cnc(CC(NC(=O)C3CCC(=O)N3C(=O)OCc3ccccc3)C(=O)N3CCCC3C(=O)NN)c2)cc1 (configuration not stated) | TGI | > 100 µM |
| COC(=O)c1c2c(c(C)[n+]([O-])c1C)C(=O)C(NCc1ccc(F)c(F)c1)=CC2=O | TGI | 7.75 µM |
| O=Cc1ccc2c(c1)CC1(C2)Cc2ccc(C=O)cc2C1 | TGI | 43.3 µM |
| C#C[C@]1(O)CC[C@H]2[C@@H]3CCC4=C/C(=N\OCCN5CCCC5)CC[C@]4(C)[C@H]3CC[C@@]21C | TGI | 32.6 µM |
| CCCCCNC1=CC(=O)c2ccccc2C1=O | TGI | > 100 µM |
| C/C(=C\c1c[nH]c2ccccc12)[N+](=O)[O-] | TGI | 15.4 µM |
| COc1cc(C(=O)n2nc(N3CCN(C)CC3)c3cc(N)ccc32)cc(OC)c1OC | TGI | > 100 µM |
